# assay: Relative chemical stability of polymorph I over 4 weeks under storage (HPLC purity)
# Assay type: physicochemical
# assay-setup: solid storage, 25 ℃, dry; week 2
property-label: HPLC purity at 336 h (%)

> print(dat)
                                   compound  unit.spec  endpoint.value
1  O=C(O)COC[C@H](O)[C@H](O)/C=C/C=C/C#C/C=C/[C@H](O)COc1ccc(F)cc1 [다형체 I]          %            97.5

----------
# assay: Relative chemical stability of polymorph I over 4 weeks under storage (HPLC purity)
# Format: physicochemical
# assay-setup: solid storage, 40 ℃, dry; week 2
property-label: HPLC purity at 336 h (%)

> print(dat)
                                   molecule        property.label  endpoint.value
1  O=C(O)COC[C@H](O)[C@H](O)/C=C/C=C/C#C/C=C/[C@H](O)COc1ccc(F)cc1 [다형체 I]  HPLC purity at 336 h            96.9
